- Procedure Summary: Cytotoxicity against mouse J774 cells
- Assay type: cell-based
- Test Conditions: read-out: ID50 (the source's name)
CC50 strictly under 8 µM means true (1); at 8 µM or over means false (0).

>>> group("O=C(c1ccc(Cl)cc1)c1c(C(F)(F)F)[n+]([O-])c2ccccc2[n+]1[O-]")
"false (0)"
>>> group("CC(=O)c1c(C(F)(F)F)[n+]([O-])c2cc(F)c(F)cc2[n+]1[O-]")
"false (0)"
>>> group("O=C(c1cccs1)c1c(C(F)(F)F)[n+]([O-])c2ccccc2[n+]1[O-]")
"true (1)"
>>> group("CC(C)(C)C(=O)c1c(C(F)(F)F)[n+]([O-])c2ccccc2[n+]1[O-]")
"false (0)"
>>> group("O=C(c1ccco1)c1c(C(F)(F)F)[n+]([O-])c2ccccc2[n+]1[O-]")
"true (1)"
>>> group("O=C(c1c(C(F)(F)F)[n+]([O-])c2ccccc2[n+]1[O-])N1CCN(c2ccccc2)CC1")
"false (0)"
>>> group("CC(C)(C)C(=O)c1c(C(F)(F)F)[n+]([O-])c2cc(F)c(F)cc2[n+]1[O-]")
"false (0)"

----------
- System: Trypanosoma cruzi
- Procedure Summary: Antitrypanosomal activity against Trypanosoma cruzi Colombiana epimastigotes assessed as cell death at 25 uM after 2 days by MTT assay relative to control
- Assay type: functional
Measurement Kind: Activity (%)

>>> reading("Cc1c(Sc2ccccc2)[n+]([O-])c2cc(Cl)c(Cl)cc2[n+]1[O-]")
100
>>> reading("O=C(c1ccccc1)c1c(C(F)(F)F)[n+]([O-])c2ccccc2[n+]1[O-]")
100
>>> reading("CCOC(=O)c1c(-c2ccccc2)[n+]([O-])c2cc(Cl)c(Cl)cc2[n+]1[O-]")
100
>>> reading("Cc1c(C(=O)c2ccccc2)[n+]([O-])c2cc(F)c(F)cc2[n+]1[O-]")
98
>>> reading("Cc1c(C(=O)Nc2ccccc2)[n+]([O-])c2ccccc2[n+]1[O-]")
24
>>> reading("COC(=O)c1c(C)[n+]([O-])c2ccccc2[n+]1[O-]")
60
>>> reading("O=C(c1ccccc1)c1c(C(F)(F)F)[n+]([O-])c2cc(F)c(F)cc2[n+]1[O-]")
100

----------
- Test system: Trypanosoma cruzi
- Procedure Summary: Inhibition of mitochondrial dehydrogenase activity in Trypanosoma cruzi Y epimastigotes at 20 uM up to 120 mins by MTT assay
Activity calls are given as the source filed them. The calls are words filed in the database; no cut-off is given here.
Classes used: active, inactive

>>> group("O=C(c1ccccc1)c1c(C(F)(F)F)[n+]([O-])c2ccccc2[n+]1[O-]")
"active"
>>> group("CC(=O)c1c(C(F)(F)F)[n+]([O-])c2cc(F)c(F)cc2[n+]1[O-]")
"active"
>>> group("O=C(c1ccccc1)c1c(C(F)(F)F)[n+]([O-])c2cc(F)c(F)cc2[n+]1[O-]")
"active"
>>> group("Cc1c(Sc2ccccc2)[n+]([O-])c2cc(Cl)c(Cl)cc2[n+]1[O-]")
"active"
>>> group("CC1CS(=O)(=O)CCN1/N=C/c1ccc([N+](=O)[O-])o1 (stereo not given) [NIFURTIMOX]")
"inactive"

----------
Property: selectivity ratio; scope: individual compounds
- Procedure Summary: Selectivity index, ratio of ID50 for mouse J774 cells to ID50 for Trypanosoma cruzi Tulahuen 2 epimastigotes
- Type: toxicity, cell-based
- Test Conditions: J774 cells versus Trypanosoma cruzi Tulahuen 2 epimastigotes, read-out: Selectivity Index
Measurement Kind: selectivity ratio

>>> reading("CC(=O)c1c(C(F)(F)F)[n+]([O-])c2cc(F)c(F)cc2[n+]1[O-]")
27.2
>>> reading("O=C(c1ccccc1)c1c(C(F)(F)F)[n+]([O-])c2cc(F)c(F)cc2[n+]1[O-]")
11.4
>>> reading("O=C(c1cccc2ccccc12)c1c(C(F)(F)F)[n+]([O-])c2ccccc2[n+]1[O-]")
5.5
>>> reading("O=C(c1ccco1)c1c(C(F)(F)F)[n+]([O-])c2ccccc2[n+]1[O-]")
3
